Test: Human HepG2 cell viability assay in 384 well format
Assay type: toxicity, cell-based
Set-up: dose 125 nL, time 70.5 hour; concentration not given beside the values
Conditions: HepG2 cells, read-out: Inhibition
Reported cytotoxicity at 70.5 h values follow for various compounds
# unit: % | format: bare number

# count of solved cases: 5
1. CC(=O)NC1CCN(c2cc(C3CCNCC3)ccn2)CC1 = -2.92
2. CSCCC(=O)N1C[C@@H](C)[C@](O)(C(C)C)C1 = -9.47
3. COc1ccccc1OCC(=O)N1C[C@@H]2CN(C)CCO[C@@H]2C1 = 32.3
4. O=C(c1cscn1)N1C[C@@H]2[C@@H](C1)OCC(=O)N2CC1CCCC1 = -6.35
5. NC(=O)C1CCCN1CCCc1ccc(C(F)(F)F)cc1 (stereo unspecified) = -5.39

From here, focus on the item given below.
Ask: Quickly give me recorded cytotoxicity at 70.5 h for O=C(NCC1(O)CCSCC1)c1ccoc1
Reply: -1.38
